These data points were gathered from PubChem BioAssay (NCI).

# Tested on: SK-MEL-28 melanoma
# Measurement protocol: NCI tumour cell line growth inhibition, 48 h; in the data active = GI50 below about 0.43 µM; inactive = the rest
Outcome field: choose from 1 for active, 0 for inactive

Example cases with answers are listed next.
{"columns": ["Compound", "Label value"],
 "data": [
  ["C[n+]1ccc(-c2c3nc(c(-c4cc[n+](C)cc4)c4ccc([n-]4)c(-c4cc[n+](C)cc4)c4nc(c(-c5cc[n+](C)cc5)c5ccc2[n-]5)C=C4)C=C3)cc1.[I-].[Zn+2]", 0],
  ["CCOC(=O)/C(=C(/C)NCC(C)C)c1cc(O)c(O)c2c(C)cc(=O)[nH]c12", 0],
  ["Cc1ccc(-c2nc(N3CCCNCC3)c3oc(-c4ccccc4)nc3n2)cc1", 0]
]}

Outcome logged for `C=C(CN1CCN(c2cccc(C(F)(F)F)n2)CC1)c1ccc(C(=S)Nc2ccccc2N)cc1` in this assay:
0

Outcome logged for `CN(C)CCOC(c1ccccc1)c1ccccc1` in this assay:
0

Outcome logged for `CCC[CH2][Sn]1([CH2]CCC)[O]C(=O)c2ccc(C)cc2[O]1` in this assay:
1

Outcome logged for `CN(C)CCCNC(=O)c1cncnc1Nc1ccc(OCc2cccc(F)c2)c(Cl)c1` in this assay:
0

###

# Test system: ACHN renal
# Measurement protocol: NCI tumour cell line growth inhibition, 48 h
Result type: TGI (µM)
Your answer should be a plain number; it is taken to be in µM.

{"columns": ["Compound", "Value unit", "TGI"],
 "data": [
  ["Cc1ccc2[nH]c3c(c2c1)C1CCC(C(C)(C)C)CC1C1C(=O)N(c2ccc4c(c2)OCO4)C(=O)C31 (stereo not given)", "µM", 3.63],
  ["C=C1C(=O)O[C@@H]2C1C[C@@H](O)C(=C)CC/C=C(\\C)CCC[C@H](C)[C@H]2OC(C)=O (stereo not given in full)", "µM", 3.85]
]}

Per the record, `O=C(NO)c1ccc(Cn2c(=O)n(-c3ccccc3F)c(=O)c3ccccc32)cc1` has TGI of 5.59

###

# Tested on: HCT-116 colon
# Measurement protocol: NCI tumour cell line growth inhibition, 48 h
Result type: TGI

{"columns": ["Compound", "Assay result"],
 "data": [
  ["CC(C)(C)OC(=O)NC1CCC(C(C)(C)C)CC1 (configuration not stated)", "> 100 µM"],
  ["CC(C)=CCN1c2ccc(Cl)cc2NC(=O)CC1C (configuration not stated)", "38 µM"]
]}

GET /values?item= `O=C(NCc1ccncc1)C12CC3CC(C1)CC(c1ccc(Cl)cc1)(C3)C2` &system= HCT-116 colon returns TGI: 22.3 µM

GET /values?item= CC(C)(C)OC(=O)NC(CO)c1cccc(OCc2ccccc2)c1 (configuration not stated) &system= HCT-116 colon returns TGI: > 100 µM

GET /values?item= `O=C1c2ccccc2C(=O)N1C/C=C/CO` &system= HCT-116 colon returns TGI: > 100 µM

GET /values?item= `NS(=O)(=O)c1ccc(Nc2c3ccccc3nc3c(C(=O)NCCO)cccc23)cc1` &system= HCT-116 colon returns TGI: 0.412 µM

GET /values?item= `Nc1nc(Nc2ccccc2)sc1C(=O)c1cccs1` &system= HCT-116 colon returns TGI: 18.2 µM

###

# System: OVCAR-8 ovarian
# Measurement protocol: NCI tumour cell line growth inhibition, 48 h
Below, each entry is listed alongside its reported TGI.

Illustrative cases are given below, each with its answer.
{"columns": ["Compound", "Assay result"],
 "data": [
  ["Cc1ncsc1-c1ccc(CNC(=O)[C@@H]2C[C@@H](O)CN2C(=O)[C@@H](NC(=O)C2(C#N)CC2)C(C)(C)C)cc1", "> 100 µM"],
  ["COc1cc(/C=C/C(=O)CC(=O)/C=C/c2ccc(O)c(OC)c2)ccc1O", "28.4 µM"],
  ["CSCCOC(=O)C(=[N+]=[N-])c1ccc([N+](=O)[O-])cc1", "> 100 µM"],
  ["CC(C)(C)c1ccc(/C=N/NC(=O)CSCC(=O)N/N=C/c2ccc(C(C)(C)C)cc2)cc1", "6.49 µM"],
  ["O=C(O)[C@@H]1NC[C@H]2C(Br)=NO[C@H]21", "> 100 µM"],
  ["CC(=O)O[C@H]1CCC2[C@@H]3CCC4Cc5nc6c(nc5C[C@]4(C)C3CC[C@@]21C)CC1CC[C@@H]2C(CC[C@@]3(C)C2CC[C@@H]3C(C)CCCC(C)C)[C@@]1(C)C6 (stereo partly specified)", "> 100 µM"],
  ["N#C/C(=C/Sc1ccccc1)C(=O)O", "36.9 µM"],
  ["CC(=O)NNC(=O)C1CCCCN1 (stereo unspecified)", "> 100 µM"],
  ["c1ccc(C[N+]23CN4CN(CN(C4)C2)C3)cc1", "81.8 µM"],
  ["COc1cc(Nc2nc3ccc(C(F)(F)F)cc3nc2C(=O)O)cc(OC)c1OC", "72.1 µM"]
]}

Per the record, `Brc1cc2c(cc1C1SCCS1)OCO2` has TGI of > 100 µM

Per the record, OCC1OC(n2cnc3c(Cl)nc(Cl)cc32)C(O)C1O (stereo unspecified) has TGI of > 100 µM

Per the record, `Br/C(=N\Nc1nn[nH]n1)c1ccncc1` has TGI of > 100 µM

###

# Tested on: CAKI-1 renal
# Measurement protocol: NCI tumour cell line growth inhibition, 48 h
Result type: TGI (µM)
Your answer should be a plain number; it is taken to be in µM.

Illustrative cases are given below, each with its answer.
{"columns": ["Molecule", "TGI / µM"],
 "data": [
  ["CC1=C([Te]c2ccc(O)cc2)C(=O)c2ccccc2C1=O", 7.41],
  ["Cc1nc2c(o1)C(=O)c1ccccc1C2=Nc1ccc(N2CCOCC2)cc1", 42.7],
  ["CCCCCCCC(=O)OCC1OC(OC)C(NC(=O)N(CCCl)N=O)C(O)C1O (stereo not given)", 32.6],
  ["O=C1C(Cl)C(c2cc3cc(Br)ccc3nc2Cl)N1c1ccc(Cl)cc1 (stereo not given)", 9.3]
]}

With those in mind, consider the next molecule.
Per the record, `C/C(=C(\c1ccc(OCCN2CCCCCC2)cc1)c1ccc(OC(=O)Cc2ccccc2)cc1)c1ccc(Cl)cc1` has TGI of 5.37

###

Below, each entry is listed alongside its reported GI50.
# System: T-47D breast
# Measurement protocol: NCI tumour cell line growth inhibition, 48 h

Illustrative cases are given below, each with its answer.
{"columns": ["Compound", "System", "GI50"],
 "data": [
  ["C/C(=C(\\c1ccc(OCCN2CCCCCC2)cc1)c1ccc(OC(=O)Cc2ccccc2)cc1)c1ccc(Cl)cc1", "T-47D breast", "1.95 µM"],
  ["CCCCCCCCCCCCOC1C(C(CC(=O)N2CCN(c3cccc(C(F)(F)F)c3)CC2)NS(=O)(=O)c2cc(Cl)cc(Cl)c2)OC2OC(C)(C)OC21 (centres undefined)", "T-47D breast", "> 100 µM"],
  ["O=c1c2c3c(sc2nc(N/N=C/c2ccc(Br)cc2)n1Cc1ccccc1)CCCC3", "T-47D breast", "21.2 µM"],
  ["COc1ccc(-c2c(-c3cc(OC)c(OC)c(OC)c3)noc2N)cc1", "T-47D breast", "9.91 µM"],
  ["OCC1OC(n2cnc3c(Cl)nc(Cl)cc32)C(O)C1O (centres undefined)", "T-47D breast", "> 100 µM"]
]}

Per the record, `C=C(CN1CCN(c2cccc(C(F)(F)F)n2)CC1)c1ccc(C(=S)Nc2ccccc2N)cc1` has GI50 of 2.26 µM

Per the record, `Cc1ncsc1-c1ccc(CNC(=O)[C@@H]2C[C@@H](O)CN2C(=O)[C@@H](NC(=O)C2(C#N)CC2)C(C)(C)C)cc1` has GI50 of > 100 µM

Per the record, `C=CN(C)S(C)(=O)=O` has GI50 of > 100 µM

Per the record, `N#CC1=C(N)NC(=S)NC12Nc1ccccc1N2` has GI50 of 69.7 µM

###

# System: KM12 colon
# Measurement protocol: NCI tumour cell line growth inhibition, 48 h; in the data active = GI50 below about 0.43 µM; inactive = the rest
Outcome field: choose from y for active, n for inactive

Example cases with answers are listed next.
{"columns": ["Molecule", "Label value"],
 "data": [
  ["CC[C@@]1(O)C(=O)OCc2c1cc1n(c2=O)Cc2c-1nc1cc3c(cc1c2C)OCO3", "y"],
  ["O=S(=O)(Nc1cc(Cl)ccc1Cl)c1ccc(-c2cnc(C3CC3)o2)cc1", "n"],
  ["CCCCCCc1nc2nc(Cl)c(Cl)nc2[nH]1", "n"],
  ["CN(C)CCCNC(=O)c1cncnc1Nc1ccc(OCc2cccc(F)c2)c(Cl)c1", "n"],
  ["N#CS.N=C=S.N=C=S.[Cu+2].[NH2-].[NH2-].[NH2-].[NH2-].c1ccc2ncccc2c1", "n"],
  ["O=C(NN=C1CCCCC1)c1[nH]c2ccc(F)cc2c1-c1ccccc1", "n"],
  ["CCS(=O)(=O)Nc1cccc(Nc2c3cccc(C)c3nc3c(C)cccc23)c1OC", "n"],
  ["N#CC1=C(N)NC(=S)NC12Nc1ccccc1N2", "n"],
  ["Cc1cc(O)cc(C)c1/C=C/c1cncc(-c2nn[nH]n2)c1", "n"]
]}

Outcome logged for OCC1OC(n2cnc3c(Cl)nc(Cl)cc32)C(O)C1O (stereo not given) in this assay:
n
